- assay.name: FeSSIF solubility assay
- Assay type: physicochemical
- measurement.setup: fed state simulated intestinal fluid (FeSSIF), thermodynamic from solid, pH 5 acetate buffer, 37° C., read-out: FESSIF Sol
Items are presented alongside their recorded solubility thermodynamic at 24 h.
Output spec: scalar in µg/mL, unitless text.

Solved entries:
(Q) Consider the molecule CCc1cc(-c2c[nH]c(C3COc4ccc(Oc5ccnc6c5CCC(=O)N6)cc4C3)n2)n(C)n1 (stereo not shown) and give its measured solubility thermodynamic at 24 h.
(A) 70

(Q) Then this molecule: CC(C(=O)Nc1cc(Oc2ccc3c(c2)CC(c2nc(-c4ccccc4)c[nH]2)CO3)ccn1)N1CCOCC1 (stereo not shown)
(A) 235

(Q) Then this molecule: O=C1CCc2c(Oc3ccc4c(c3)CN(c3nc5cc(C(F)(F)F)ccc5[nH]3)CC4)ccnc2N1
(A) 3

New cases:
(Q) Consider the molecule CC(C)CCc1c[nH]c(C2COc3ccc(Oc4ccnc5c4CCC(=O)N5)cc3C2)n1 (stereo not shown) and give its measured solubility thermodynamic at 24 h.
(A) 311

* * *

Items are presented alongside their recorded mPPB (% free).
- assay.name: Plasma protein binding assay, mouse plasma (mPPB)
- Assay type: in vitro ADME
- measurement.setup: 5 μM, equilibrium dialysis 4 hours at 37° C.

Solved entries:
(Q) Consider the compound O=C1CCc2c(Oc3ccc4c(c3)CC(c3nc(C5CCOCC5)c[nH]3)CO4)ccnc2N1 (stereo not shown) and give its measured mPPB (% free).
(A) 10.1 % free

(Q) Then this compound: O=C(CN1CC[C@@H](O)C1)Nc1cc(Oc2ccc3c(c2)CC(c2nc(-c4ccccc4)c[nH]2)CO3)ccn1 (stereo partly shown)
(A) 0.53 % free

(Q) Then this compound: CC(C)(C)CCc1c[nH]c(C2COc3ccc(Oc4ccnc5c4CCC(=O)N5)cc3C2)n1 (stereo not shown)
(A) 0.3 % free

New cases:
(Q) Consider the compound O=C1CCc2c(Oc3ccc4c(c3)CN(c3nc5cc(C(F)(F)F)ccc5[nH]3)CC4)ccnc2N1 and give its measured mPPB (% free).
(A) <0.1 % free

(Q) Then this compound: Cc1cc(-c2c[nH]c(C3COc4ccc(Oc5ccnc6c5CCC(=O)N6)cc4C3)n2)n(C)n1 (stereo not shown)
(A) 3.0 % free

(Q) Then this compound: O=C1CCc2c(Oc3ccc4c(c3)CN(c3nc5ccccc5[nH]3)CC4)ccnc2N1
(A) 0.5 % free

(Q) Then this compound: CCc1cc(-c2c[nH]c(C3COc4ccc(Oc5ccnc6c5CCC(=O)N6)cc4C3)n2)ccn1 (stereo not shown)
(A) 1.0 % free

* * *

- assay.name: Plasma protein binding assay, human plasma (hPPB)
- Type: in vitro ADME
- measurement.setup: 5 μM, equilibrium dialysis 4 hours 37° C.
Response field label: string, one of Yes (hPPB (% free) strictly below 0.7 % free) or No.

(Q) Strictly below 0.7 % free in hPPB (% free)? O=C1CCc2c(Oc3ccc4c(c3)CC(c3nc5cc(Cl)ccc5[nH]3)CO4)ccnc2N1 (stereo not drawn) [Compound 25]
(A) Yes

(Q) Then this compound: Cc1ccccc1-c1c[nH]c(C2COc3ccc(Oc4ccnc5c4CCC(=O)N5)cc3C2)n1 (stereo not drawn) [Compound 2]
(A) Yes

(Q) Then this compound: O=C1CCc2c(Oc3ccc4c(c3)CC(c3nc5c(C(F)(F)F)cccc5[nH]3)CO4)ccnc2N1 (stereo not drawn) [Compound 27]
(A) Yes
